Molecular target: Fibroblast growth factor receptor (Homo sapiens, UniProt P22607+P11362+P22455+P21802)
Assay: Inhibition of FGFR (unknown origin) by FRET assay
Type: protein assay
attribute-measured: IC50

smiles_str=O=C(c1ccc(Cl)cc1)N1CCN(c2nnc(Cc3ccccc3)c3ccccc23)CC1 attribute_measured=IC50 data_value="2.628 µM"
smiles_str=S=C(Nc1ccc(Cl)cc1)N1CCN(c2nnc(Cc3ccccc3)c3ccccc23)CC1 attribute_measured=IC50 data_value="5.278 µM"
smiles_str=O=C(Nc1ccccc1)N1CCN(c2nnc(Cc3ccccc3)c3ccccc23)CC1 attribute_measured=IC50 data_value="2.579 µM"
smiles_str=COc1ccc(Cc2nnc(N3CCN(C(=S)Nc4ccc(Cl)cc4)CC3)c3ccccc23)cc1 attribute_measured=IC50 data_value="4.354 µM"
smiles_str=COc1ccc(Cc2nnc(N3CCN(C(=O)Nc4ccc(Cl)c(C(F)(F)F)c4)CC3)c3ccccc23)cc1 attribute_measured=IC50 data_value="4.626 µM"
smiles_str=COc1ccc(Cc2nnc(N3CCN(C(=S)Nc4ccccc4)CC3)c3ccccc23)cc1 attribute_measured=IC50 data_value="7.953 µM"
smiles_str=COc1ccc(Cc2nnc(N3CCN(C(=O)c4ccccc4)CC3)c3ccccc23)cc1 attribute_measured=IC50 data_value="6.332 µM"
smiles_str=COc1ccc(NC(=S)N2CCN(c3nnc(Cc4ccccc4)c4ccccc34)CC2)cc1 attribute_measured=IC50 data_value="5.517 µM"
smiles_str=COc1ccc(NC(=O)N2CCN(c3nnc(Cc4ccccc4)c4ccccc34)CC2)cc1 attribute_measured=IC50 data_value="4.567 µM"
smiles_str=O=C(Nc1ccc(Cl)cc1)N1CCN(c2nnc(Cc3ccccc3)c3ccccc23)CC1 attribute_measured=IC50 data_value="6.346 µM"
smiles_str=COc1ccc(Cc2nnc(N3CCN(C(=S)Nc4ccc(OC)cc4)CC3)c3ccccc23)cc1 attribute_measured=IC50 data_value="3.566 µM"
smiles_str=S=C(Nc1cccc(Cl)c1)N1CCN(c2nnc(Cc3ccccc3)c3ccccc23)CC1 attribute_measured=IC50 data_value="7.62 µM"
smiles_str=S=C(Nc1ccccc1)N1CCN(c2nnc(Cc3ccccc3)c3ccccc23)CC1 attribute_measured=IC50 data_value="2.507 µM"
smiles_str=O=C(c1ccccc1)N1CCN(c2nnc(Cc3ccccc3)c3ccccc23)CC1 attribute_measured=IC50 data_value="5.254 µM"
smiles_str=COc1ccc(Cc2nnc(N3CCN(C(=O)Nc4ccc(OC)cc4)CC3)c3ccccc23)cc1 attribute_measured=IC50 data_value="3.512 µM"
smiles_str=COc1ccc(C(=O)N2CCN(c3nnc(Cc4ccccc4)c4ccccc34)CC2)cc1 attribute_measured=IC50 data_value="8.605 µM"
smiles_str=COc1ccc(Cc2nnc(N3CCN(C(=S)Nc4cccc(Cl)c4)CC3)c3ccccc23)cc1 attribute_measured=IC50 data_value="2.538 µM"
smiles_str=COc1ccc(Cc2nnc(N3CCN(C(=O)Nc4ccccc4)CC3)c3ccccc23)cc1 attribute_measured=IC50 data_value="2.628 µM"
smiles_str=O=C(Nc1ccc(Cl)c(C(F)(F)F)c1)N1CCN(c2nnc(Cc3ccccc3)c3ccccc23)CC1 attribute_measured=IC50 data_value="8.565 µM"
smiles_str=COc1cccc(NC(=S)N2CCN(c3nnc(Cc4ccccc4)c4ccccc34)CC2)c1 attribute_measured=IC50 data_value="3.853 µM"
